# TARGET ENTITY: human recombinant mGluR5 (Homo sapiens, UniProt P41594)
# Construct: expressed in transfected cells; host or cells: HEK 293 cell line, cultured with tetracycline, hygromycin and geneticin; tetracycline is withdrawn 3-7 days before the assay
# Sequence (P41594 21-1212): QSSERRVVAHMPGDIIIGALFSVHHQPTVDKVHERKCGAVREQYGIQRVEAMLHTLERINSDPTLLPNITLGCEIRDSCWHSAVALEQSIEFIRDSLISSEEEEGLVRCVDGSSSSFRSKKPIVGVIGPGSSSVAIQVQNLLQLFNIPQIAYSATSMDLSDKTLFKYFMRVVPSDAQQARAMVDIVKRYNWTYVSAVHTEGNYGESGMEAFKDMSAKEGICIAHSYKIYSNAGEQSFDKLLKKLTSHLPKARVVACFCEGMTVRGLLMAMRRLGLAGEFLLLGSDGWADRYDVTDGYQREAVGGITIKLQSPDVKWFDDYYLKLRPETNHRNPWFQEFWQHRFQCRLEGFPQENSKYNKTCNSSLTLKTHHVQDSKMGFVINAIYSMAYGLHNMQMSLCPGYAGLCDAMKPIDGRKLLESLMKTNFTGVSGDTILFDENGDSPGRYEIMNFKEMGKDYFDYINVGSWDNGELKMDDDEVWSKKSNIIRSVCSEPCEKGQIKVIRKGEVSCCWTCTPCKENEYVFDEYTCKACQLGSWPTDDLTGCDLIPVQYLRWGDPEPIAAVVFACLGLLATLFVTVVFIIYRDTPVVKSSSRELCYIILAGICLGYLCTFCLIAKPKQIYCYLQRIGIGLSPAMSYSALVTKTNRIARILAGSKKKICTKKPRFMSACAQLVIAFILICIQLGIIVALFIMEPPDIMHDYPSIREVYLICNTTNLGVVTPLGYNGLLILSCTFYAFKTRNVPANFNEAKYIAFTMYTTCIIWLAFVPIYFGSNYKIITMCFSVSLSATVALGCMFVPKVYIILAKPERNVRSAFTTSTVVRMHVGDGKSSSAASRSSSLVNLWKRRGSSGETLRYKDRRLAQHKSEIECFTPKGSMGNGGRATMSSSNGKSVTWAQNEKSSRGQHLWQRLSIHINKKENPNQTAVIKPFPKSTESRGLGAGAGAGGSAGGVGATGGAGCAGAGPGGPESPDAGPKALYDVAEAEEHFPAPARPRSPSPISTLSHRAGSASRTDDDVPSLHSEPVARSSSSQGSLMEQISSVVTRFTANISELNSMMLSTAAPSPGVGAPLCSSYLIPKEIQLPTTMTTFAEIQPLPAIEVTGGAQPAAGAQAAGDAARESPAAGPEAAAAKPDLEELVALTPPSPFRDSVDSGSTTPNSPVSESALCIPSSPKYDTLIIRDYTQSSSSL
# EXPERIMENTAL PROTOCOL: positive modulation of mGluR5, calcium based FLIPR assay
# Format: cell-based
# CONDITIONS: EC50 of the modulation; HEK 293 cell line expressing human recombinant mGluR5; peak height of Ca fluorescence signal after glutamate at approx. 5% basal stimulation; read-out: EC50
Examples of compounds with documented pEC50 follow.
As a rule, pEC50 stands for the negative log10 of the concentration, concentration in M.

query: What value of measured pEC50 is listed for O=C(Cn1nc(-c2ccc(F)cc2)nc1-c1ccc(F)cc1)N1CCN(c2ccccc2F)C(=O)C1 ?
result: 6.27

query: Likewise for Cc1cc(-c2nc(C3CCC(C)CC3)n(CC(=O)N3CCc4nc(N)sc4CC3)n2)ccc1F (stereo not shown) ?
result: 5.94

* * *

# TARGET ENTITY: human recombinant mGluR5 (Homo sapiens, UniProt P41594)
# Construct: expressed in transfected cells; host or cells: HEK 293 cell line, cultured with tetracycline, hygromycin and geneticin; tetracycline is withdrawn 3-7 days before the assay
# EXPERIMENTAL PROTOCOL: positive modulation of mGluR5, calcium based FLIPR assay
# Type: cell-based
# CONDITIONS: EC50 of the modulation; HEK 293 cell line expressing human recombinant mGluR5; peak height of Ca fluorescence signal after glutamate at approx. 5% basal stimulation; read-out: EC50
REPORTED METRIC: pEC50
As a rule, pEC50 stands for the negative log10 of the concentration, concentration in M.

INSERT INTO results (molecule, reported_metric, value_observed) VALUES
  ('COc1ccc(-c2nc(-c3ccc(F)cc3)nn2CC(=O)N2CCc3nc(C)sc3CC2)cc1', 'pEC50', 6.93),
  ('CN(C)c1nc2c(s1)CCN(C(=O)Cn1nc(-c3ccc(F)cc3)nc1-c1ccc(F)cc1)CC2', 'pEC50', 6.46),
  ('O=C(Cn1nc(-c2ccc(F)cc2)nc1-c1ccc(F)cc1)N1CCc2cccnc2CC1', 'pEC50', 6.88);

query: What value of measured pEC50 is listed for Cc1cc(-c2nc(-c3ccccc3)n(CC(=O)N3CCc4cc(-c5ccccc5)nnc4CC3)n2)ccc1F ?
result: 6.83

query: Likewise for COc1ccc(-c2nc(-c3ccc(F)cc3)nn2CC(=O)N2CCc3nc(N)sc3CC2)cc1 ?
result: 6.73

query: Likewise for Nc1ccc2c(c1)CCN(C(=O)Cn1nc(-c3ccc(F)cc3)nc1-c1ccc(F)cc1)CC2 ?
result: 6.29

query: Likewise for O=C(Cn1nc(-c2ccc(F)cc2)nc1-c1ccc(F)cc1)N1CCC(OCC2CC2)CC1 ?
result: 5.85

query: Likewise for O=C(Cn1nc(-c2ccc(F)cc2)nc1-c1ccc(F)cc1)N1CCN(C2=NCCO2)CC1 ?
result: 6.05

query: Likewise for O=C(Cn1nc(-c2ccc(F)cc2)nc1-c1ccc(F)cc1)N1CCN(c2nccc3sccc23)CC1 ?
result: 6.30

query: Likewise for Cc1cc(-c2nc(C3CCCC3)n(CC(=O)N3CCc4nc(N)sc4CC3)n2)ccc1F ?
result: 6.60

query: Likewise for CC1CN(c2ncccn2)CCN1C(=O)Cn1nc(-c2ccc(F)cc2)nc1-c1ccc(F)cc1 (stereo not drawn) ?
result: 6.48

query: Likewise for Cc1nnc(N2CCN(C(=O)Cn3nc(-c4ccc(F)cc4)nc3-c3ccc(F)cc3)CC2)o1 ?
result: 6.81

query: Likewise for O=C(Cn1nc(-c2ccc(F)cc2)nc1-c1ccc(F)cc1)N1CCc2nc(C3CCOCC3)sc2CC1 ?
result: 5.75

query: Likewise for Cc1cc(-c2nc(C3CCCCC3C)n(CC(=O)N3CCc4nc(N)sc4CC3)n2)ccc1F (stereo not drawn) ?
result: 5.96

query: Likewise for Cc1nc2c(s1)CCN(C(=O)Cn1nc(-c3ccc(F)c(C)c3)nc1CCC(C)C)CC2 ?
result: 6.99

query: Likewise for COc1ccc2c(c1)CCN(C(=O)Cn1nc(-c3ccc(F)cc3)nc1-c1ccc(F)cc1)C2C (stereo not drawn) ?
result: 5.96

query: Likewise for O=C(Cn1nc(-c2ccc(F)cc2)nc1-c1ccc(F)cc1)N1CCN(c2ncnc3c2SCC3)CC1 ?
result: 6.62

query: Likewise for Cc1cc(-c2nc(-c3ccccc3)n(CC(=O)N3CCc4ncsc4CC3)n2)ccc1F ?
result: 7.23

query: Likewise for O=C(Cn1nc(-c2ccc(F)cc2)nc1-c1ccc(F)cc1)N1CCc2nc(N3CCCC3)sc2CC1 ?
result: 6.17

* * *

# TARGET ENTITY: human recombinant mGluR5 (Homo sapiens)
# Construct: expressed in transfected cells; host or cells: HEK 293 cell line, cultured with tetracycline, hygromycin and geneticin; tetracycline is withdrawn 3-7 days before the assay
# EXPERIMENTAL PROTOCOL: positive modulation of mGluR5, calcium based FLIPR assay
# Assay type: cell-based
# CONDITIONS: EC50 of the modulation; HEK 293 cell line expressing human recombinant mGluR5; peak height of Ca fluorescence signal after glutamate at approx. 5% basal stimulation; read-out: EC50
Checkbox rule: EC50 lower than 100 nM = 1; EC50 not lower than 100 nM = -1.

Example entries begin here.
INSERT INTO measurements (compound, target_entity, group) VALUES
  ('COc1ccc(-c2nc(-c3ccccc3)n(CC(=O)N3Cc4nc(C)sc4C3)n2)cc1 [Example 7.03.050.]', 'human recombinant mGluR5 (Homo sapiens)', -1),
  ('CC(=O)Nc1nc2c(s1)CCN(C(=O)Cn1nc(-c3ccc(F)cc3)nc1-c1ccc(F)cc1)CC2 [Example 7.02.07.]', 'human recombinant mGluR5 (Homo sapiens)', -1),
  ('Cc1cc(-c2nc(CCC(C)C)n(CC(=O)N3CCc4nc(N)sc4CC3)n2)ccc1F [Example 7.03.112.]', 'human recombinant mGluR5 (Homo sapiens)', -1),
  ('COc1nc2c(s1)CCN(C(=O)Cn1nc(-c3ccc(F)cc3)nc1-c1ccc(F)cc1)CC2 [Example 7.03.039.]', 'human recombinant mGluR5 (Homo sapiens)', 1),
  ('O=C(Cn1nc(-c2ccc(F)cc2)nc1-c1ccc(F)cc1)N1CC=C(c2ccccc2)CC1 [Example 7.02.66.]', 'human recombinant mGluR5 (Homo sapiens)', -1),
  ('O=C(Cn1nc(-c2ccc(F)cc2)nc1-c1ccc(F)cc1)N1CCN(c2ccccn2)C(=O)C1 [Example 7.01.01.]', 'human recombinant mGluR5 (Homo sapiens)', -1),
  ('Cc1nc2c(s1)CN(C(=O)Cn1nc(-c3ccc(F)c(C)c3)nc1-c1ccccc1)C2 [Example 7.03.066.]', 'human recombinant mGluR5 (Homo sapiens)', 1),
  ('Cc1cc(-c2nc(C(C)C)n(CC(=O)N3CCc4nc(N)sc4CC3)n2)ccc1F [Example 7.03.073.]', 'human recombinant mGluR5 (Homo sapiens)', -1),
  ('Cc1nc2c(o1)CN(C(=O)Cn1nc(-c3ccc(OC(F)F)cc3)nc1-c1ccccc1)C2 [Example 7.03.129]', 'human recombinant mGluR5 (Homo sapiens)', 1),
  ('Cc1nc2c(o1)CN(C(=O)Cn1nc(-c3ccc(F)c(C)c3)nc1C1CCCCC1)CC2 [Example 7.03.059.]', 'human recombinant mGluR5 (Homo sapiens)', -1);

query: Is 100 nM strictly greater than the compound's reported EC50? compound: O=C(Cn1nc(-c2ccc(F)cc2)nc1-c1ccc(F)cc1)N1CCC(c2nnc(-c3ccccc3)o2)CC1 [Example 7.03.008.]
result: -1

query: Likewise for COc1nc2c(s1)CCN(C(=O)Cn1nc(-c3ccc(F)c(C)c3)nc1-c1ccccc1)CC2 [Example 7.02.85.] ?
result: 1

query: Likewise for O=C(Cn1nc(-c2ccc(F)cc2)nc1-c1ccc(F)cc1)N1CC(c2ccccn2)C1 [Example 7.02.72.] ?
result: -1

query: Likewise for Cc1cc(-c2nc(-c3ccccc3)n(CC(=O)N3CCc4ccc(N)cc4CC3)n2)ccc1F [Example 7.02.88.] ?
result: -1

* * *

# TARGET ENTITY: human recombinant mGluR5 (Homo sapiens)
# Construct: expressed in transfected cells; host or cells: HEK 293 cell line, cultured with tetracycline, hygromycin and geneticin; tetracycline is withdrawn 3-7 days before the assay
# EXPERIMENTAL PROTOCOL: positive modulation of mGluR5, calcium based FLIPR assay
# Format: cell-based
# CONDITIONS: EC50 of the modulation; HEK 293 cell line expressing human recombinant mGluR5; peak height of Ca fluorescence signal after glutamate at approx. 5% basal stimulation; read-out: EC50
Examples of molecules with documented pEC50 follow.
As a rule, pEC50 stands for the negative log10 of the concentration, concentration in M.

INSERT INTO measurements (chemical_string, value_observed) VALUES
  ('O=C(Cn1nc(-c2ccc(F)cc2)nc1-c1ccc(F)cc1)N1CCC(c2ccccn2)CC1', 6.13);

query: What value of measured pEC50 is listed for CCCCCc1nc(-c2ccc(F)c(C)c2)nn1CC(=O)N1Cc2nc(C)oc2C1 ?
result: 6.82

query: Likewise for COc1ccc(-c2nc(-c3ccccc3)n(CC(=O)N3CCc4nc(C)sc4CC3)n2)cc1 ?
result: 7.01

query: Likewise for O=C(Cn1nc(-c2ccc(F)cc2)nc1-c1ccc(F)cc1)N1Cc2ccc(O)cc2C1 ?
result: 6.67

query: Likewise for COc1cc(-c2nc(-c3ccc(F)cc3)nn2CC(=O)N2CCc3nc(C)sc3CC2)ccc1F ?
result: 6.24

query: Likewise for Cc1ncc2c(n1)CCN(C(=O)Cn1nc(-c3ccc(F)cc3)nc1-c1ccc(F)cc1)C2 ?
result: 5.92

query: Likewise for Cc1nc2c(s1)CCN(C(=O)Cn1nc(-c3ccc(F)c(C)c3)nc1C1CCC(F)(F)CC1)CC2 ?
result: 6.30

query: Likewise for O=C(Cn1nc(-c2ccc(F)cc2)nc1-c1ccc(F)cc1)N1CCC(n2nc(-c3cccs3)ccc2=O)CC1 ?
result: 5.75
